# test.system: STING (Homo sapiens, UniProt Q86WV6, G230A/H232R/R293Q/R71H)
# Sequence (Q86WV6 whole entry R71H/G230A/H232R/R293Q): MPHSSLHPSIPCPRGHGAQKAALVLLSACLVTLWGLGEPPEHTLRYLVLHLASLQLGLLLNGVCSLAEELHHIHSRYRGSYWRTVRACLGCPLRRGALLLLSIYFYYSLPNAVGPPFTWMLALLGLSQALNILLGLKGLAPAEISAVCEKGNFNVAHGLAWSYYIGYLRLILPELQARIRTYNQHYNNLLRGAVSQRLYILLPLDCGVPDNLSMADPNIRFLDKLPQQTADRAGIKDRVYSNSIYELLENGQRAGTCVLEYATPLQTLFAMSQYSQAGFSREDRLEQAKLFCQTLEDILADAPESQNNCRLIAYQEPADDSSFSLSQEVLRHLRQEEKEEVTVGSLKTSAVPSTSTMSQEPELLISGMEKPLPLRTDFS
# assay.protocol: Reporter gene expression assay in THP1-Dual cells (IRF pathway Lucia luciferase, 2',3'-cGAMP stimulation)
# assay.conditions: 10 min preincubation, 5 μM 2',3'-cGAMP, 20 hr, IRF reporter QUANTI-Luc, read-out: THP-1 (HAQ) Activity
Each entry below carries its reported IC50.

{"columns": ["compound", "IC50"],
 "data": [
  ["O=C(Nc1ccc2c(c1)OCC(=O)N2Cc1ccc(O)cc1)Nc1ccc2cc[nH]c2c1", "1 to 10 µM"],
  ["Cc1cc2cc[nH]c2cc1NC(=O)Nc1ccc2c(c1)OCC(=O)N2Cc1ccccc1", "> 10 µM"],
  ["O=C(NCc1ccco1)Nc1ccc2c(c1)OCC(=O)N2Cc1ccccc1", "> 10 µM"],
  ["NC(=O)c1ccc(NC(=O)Nc2ccc3c(c2)N(Cc2ccccc2)C(=O)CS3)cc1", "1 to 10 µM"],
  ["O=C1COc2cc(NC(=O)Nc3ccc4cc[nH]c4c3)ccc2N1", "> 10 µM"],
  ["O=C(Nc1ccc2c(c1)OCC(=O)N2Cc1ccccc1)Nc1ccn(-c2ccccc2)n1", "> 10 µM"],
  ["CN1C(=O)CSc2ccc(NC(=O)Nc3ccc(F)cc3)cc21", "> 10 µM"],
  ["O=C(Nc1ccc2c(c1)N(Cc1ccccc1)C(=O)CS2)Nc1ccc2cn[nH]c2c1", "1 to 10 µM"],
  ["O=C1CCc2ccc(NC(=O)Nc3ccc4c(c3)N(Cc3ccccc3)C(=O)CS4)cc2N1", "1 to 10 µM"],
  ["COc1ccc(OC)c(CN2C(=O)COc3cc(NC(=O)Nc4ccc5cc[nH]c5c4)ccc32)c1", "1 to 10 µM"],
  ["O=C(Nc1ccc2c(c1)OCC(=O)N2Cc1nc2ccccc2s1)Nc1ccc2cc[nH]c2c1", "≤ 1 µM"],
  ["O=C(Nc1ccc2cc[nH]c2c1)Nc1cc2c(cc1Br)OCCN2Cc1ccccc1", "1 to 10 µM"],
  ["O=C(Nc1ccc2c(c1)OCC(=O)N2Cc1ccccc1O)Nc1ccc2cc[nH]c2c1", "1 to 10 µM"],
  ["O=C(Nc1ccc2c(c1)OCC(=O)N2c1ccccc1)Nc1ccc2cc[nH]c2c1", "1 to 10 µM"],
  ["CN(C(=O)Nc1ccc2cc[nH]c2c1)c1ccc2c(c1)N(Cc1ccccc1)CCO2", "1 to 10 µM"],
  ["COC(=O)c1ccccc1CN1C(=O)COc2cc(NC(=O)Nc3ccc4cc[nH]c4c3)ccc21", "1 to 10 µM"],
  ["O=C(Nc1ccc(F)cc1)Nc1ccc2c(c1)N(Cc1cn3ccccc3n1)C(=O)CS2", "1 to 10 µM"],
  ["NC(=O)C1COc2ccc(NC(=O)Nc3ccc4cc[nH]c4c3)cc2N1Cc1ccccc1 (stereo not drawn)", "1 to 10 µM"],
  ["O=C(Nc1ccc2c(c1)N(CCN1CCCC1)CCS2)Nc1ccc2cc[nH]c2c1", "1 to 10 µM"],
  ["O=C(Nc1ccc2cc[nH]c2c1)Nc1cc2c(cc1Br)N(Cc1ccccc1)C(=O)CO2", "1 to 10 µM"],
  ["O=C(Nc1ccc2c(c1)N(Cc1c(F)cccc1Cl)CCO2)Nc1ccc2cc[nH]c2c1", "≤ 1 µM"],
  ["O=C(Nc1ccc(F)cc1)Nc1ccc2c(c1)N(Cc1ccccc1)CCS2", "1 to 10 µM"],
  ["O=C(Nc1ccc2c(c1)OCCO2)Nc1ccc2c(c1)N(Cc1ccccc1)C(=O)CS2", "1 to 10 µM"],
  ["O=C(Nc1ccc2c(c1)N(Cc1ccccc1)C(=O)CS2)Nc1cccc2cc[nH]c12", "1 to 10 µM"],
  ["O=C(Nc1ccc2c(c1)OCCN2Cc1ccccc1)Nc1ccc2cc[nH]c2c1", "> 10 µM"],
  ["O=C(Nc1ccc2c(c1)OCC(=O)N2Cc1ccc(CO)cc1)Nc1ccc2cc[nH]c2c1", "> 10 µM"],
  ["O=C(Nc1ccc2c(c1)OCC(=O)N2Cc1ccc(F)cc1Cl)Nc1ccc2cc[nH]c2c1", "≤ 1 µM"],
  ["O=C1CSc2ccc(-c3nc(-c4ccccc4)co3)cc2N1Cc1c(F)cccc1Cl", "> 10 µM"],
  ["NC(=O)c1cccc(CN2C(=O)COc3cc(NC(=O)Nc4ccc5cc[nH]c5c4)ccc32)c1 [Example 98]", "1 to 10 µM"],
  ["O=C(Nc1ccc2c(c1)N(Cc1ccccc1)CCO2)Nc1cnc2cc[nH]c2c1", "1 to 10 µM"],
  ["O=S(=O)(Nc1ccc2c(c1)OCCN2c1ccccc1)Nc1ccc2cc[nH]c2c1", "1 to 10 µM"],
  ["O=C(Nc1ccc2c(c1)OCC(=O)N2Cc1cc(F)cc(F)c1)Nc1ccc2cc[nH]c2c1", "≤ 1 µM"],
  ["O=C(Nc1ccc2c(c1)OCC(=O)N2Cc1cnccn1)Nc1ccc2cc[nH]c2c1", "> 10 µM"]
]}
